- target.desc: Cyclin-dependent kinase 4 (Homo sapiens)
- condition.notes: at 0.1 µM
- Description: GSK_PKIS: CDK4/cyclinD mean inhibition at 0.1 uM [Nanosyn]
measured.parameter: inhibition (%)

smiles	result.units	observed.value
NC(=O)Cc1ccccc1Oc1nccc(-c2c(-c3ccc(F)cc3)ncn2C2CCNCC2)n1	%	0.31
NC(=O)c1ccc(Oc2nccc(-c3c(-c4ccc(F)cc4)ncn3C3CCNCC3)n2)cc1	%	3.18
O=C1Nc2ccc(I)cc2C1=Cc1cc(Br)c(O)c(Br)c1	%	4.82
O=C(Nc1n[nH]c2nc(-c3ccco3)ccc12)C1CC1	%	1.89
C[C@@H](Oc1cc(-n2cnc3ccc(OCC4CCN(C)CC4)cc32)sc1C(N)=O)c1ccccc1Cl	%	2.79
